Source: the Human Domainome abundance scans (Beltran et al. 2025)

B1: CD2-associated protein, residues 271 to 331; numbered along this chain, Q9Y5K6 (parent)
chain: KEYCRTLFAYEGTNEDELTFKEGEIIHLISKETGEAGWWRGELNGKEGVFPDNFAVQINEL

- Variants of: B1
- experimental protocol: abundance fitness (aPCA) (normalised: wild type 0, dead -1); higher = more abundant; growth selection in yeast, the domain comes from the species named
- assay setup: Homo sapiens
Entries are grouped by abundance fitness into these classes: group A = under -0.5, group B = from -0.5 up to -0.3, group C = -0.3 and over

KEYCRTLFAYEGTNEDETTFKEGEIIHLISKETGEAGWWRGELNGKEGVFPDNFAVQINEL [L18T] :: group A
KEYCVTLFAYEGTNEDELTFKEGEIIHLISKETGEAGWWRGELNGKEGVFPDNFAVQINEL [R5V] :: group B
KEYCRTLPAYEGTNEDELTFKEGEIIHLISKETGEAGWWRGELNGKEGVFPDNFAVQINEL [F8P] :: group B
KEYCRTLFAYEGTNEDELTFKEGEIIHLISKETGEAGWWRGELNQKEGVFPDNFAVQINEL [G45Q] :: group A
KEYCRTLDAYEGTNEDELTFKEGEIIHLISKETGEAGWWRGELNGKEGVFPDNFAVQINEL [F8D] :: group B
KEYCRTLFAYEGTNEDELTFKEGEIIHLISKETGEAGWWRGELNGKEGVMPDNFAVQINEL [F50M] :: group A
KEYCRTLFAYEGTNEDELTFKAGEIIHLISKETGEAGWWRGELNGKEGVFPDNFAVQINEL [E22A] :: group C
KEYCRTLFAYEGTNERELTFKEGEIIHLISKETGEAGWWRGELNGKEGVFPDNFAVQINEL [D16R] :: group C
KEYCRTLFAYEGTNEDEATFKEGEIIHLISKETGEAGWWRGELNGKEGVFPDNFAVQINEL [L18A] :: group B
KEYCRTLFAYEGTNEDELTFKEGEIIHLISKETGEAGWWRGELNGKEGVFPWNFAVQINEL [D52W] :: group C
KEYCRTLFAYEGTNEDELTFKEGEIIHLISKETGEAGWWRGELNGKEGVFPDNFYVQINEL [A55Y] :: group A
